The measured values listed here are drawn from patent US20020028938A1.

inhibition at 10 µM listing for selected compounds.
- study.system: recombinant human Cox-1 (r-hu Cox1) (Homo sapiens)
- Construct: made in house; host or cells: baculovirus/Sf9 insect cells (microsomes)
- Sequence (P23219 24-599): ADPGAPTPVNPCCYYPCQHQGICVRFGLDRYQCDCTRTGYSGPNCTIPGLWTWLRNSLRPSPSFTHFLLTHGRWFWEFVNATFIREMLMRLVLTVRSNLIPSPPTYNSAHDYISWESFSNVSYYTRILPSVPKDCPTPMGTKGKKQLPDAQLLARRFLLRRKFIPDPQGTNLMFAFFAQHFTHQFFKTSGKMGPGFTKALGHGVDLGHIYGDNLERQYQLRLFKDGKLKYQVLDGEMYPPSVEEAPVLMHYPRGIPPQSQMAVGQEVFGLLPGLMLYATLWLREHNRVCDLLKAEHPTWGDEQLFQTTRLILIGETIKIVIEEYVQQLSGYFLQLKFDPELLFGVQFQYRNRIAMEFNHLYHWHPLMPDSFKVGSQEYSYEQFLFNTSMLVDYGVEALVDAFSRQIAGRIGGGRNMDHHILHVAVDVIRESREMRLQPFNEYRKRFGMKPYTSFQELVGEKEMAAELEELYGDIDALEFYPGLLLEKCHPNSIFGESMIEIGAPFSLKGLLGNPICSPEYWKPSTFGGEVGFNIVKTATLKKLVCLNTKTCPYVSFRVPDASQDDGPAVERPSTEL
- test.details: Recombinant human PGHS-1 enzyme assay (RHUCX1)
- Assay type: biochemical
- condition: 10 μM; read-out: RHUCX1 % Inh. at Dose
- Protocol: To compare the mean responses of the treatment groups, analysis of variance was applied. Percent inhibition values were determined by comparing the individual treatment mean values to the mean of the control group. […] EIA reagents for prostaglandin determination were purchased from Perseptive Diagnostics, (Cambridge, Mass.). Prostaglandin E2 (PGE2) levels in lavage fluids were determined after the samples were dried under nitrogen and reconstituted with assay buffer. […]
Write the number in % without appending the unit.

compound.string	quantity.unit	inhibition at 10 µM
C=Cc1ccc(-c2c(-c3ccc(S(C)(=O)=O)cc3)cnn(Cc3ccccc3)c2=O)cc1	%	54
CS(=O)(=O)c1ccc(-c2cnn(CC=Cc3ccccc3)c(=O)c2-c2ccc(F)cc2)cc1	%	21
NS(=O)(=O)c1ccc(-c2cnn(CC(F)=C(F)F)c(=O)c2-c2ccc(F)cc2)cc1	%	62

Turning now to a further compound:
Entry `NS(=O)(=O)c1ccc(-c2cnn(CC=C(F)F)c(=O)c2-c2ccc(F)cc2)cc1` ; inhibition at 10 µM = 43
